Target: Fyn (UniProt P06241)
Sequence (P06241 whole entry, looked up): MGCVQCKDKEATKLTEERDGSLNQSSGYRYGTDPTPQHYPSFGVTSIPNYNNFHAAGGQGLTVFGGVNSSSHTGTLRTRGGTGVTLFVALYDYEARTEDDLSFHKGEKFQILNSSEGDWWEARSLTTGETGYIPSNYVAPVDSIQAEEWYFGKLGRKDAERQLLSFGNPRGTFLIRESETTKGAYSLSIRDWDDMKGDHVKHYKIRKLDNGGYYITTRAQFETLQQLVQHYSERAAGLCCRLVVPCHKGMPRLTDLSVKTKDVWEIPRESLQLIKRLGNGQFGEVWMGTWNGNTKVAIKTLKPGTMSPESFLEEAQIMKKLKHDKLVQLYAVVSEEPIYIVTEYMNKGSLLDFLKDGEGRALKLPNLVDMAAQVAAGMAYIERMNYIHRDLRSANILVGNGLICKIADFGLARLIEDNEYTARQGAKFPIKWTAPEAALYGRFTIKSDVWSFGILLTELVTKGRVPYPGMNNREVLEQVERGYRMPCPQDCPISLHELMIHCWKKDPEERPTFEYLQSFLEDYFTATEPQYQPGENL
Assay: phosphorylation enrichment, bacterial display (enrichment ratio); higher = better substrate or ligand; peptides without Tyr show the background
measured-property: phosphorylation enrichment

Fill in reported phosphorylation enrichment for this entry: ATHSGYRLNDF [CLDN14_Y233_YF]
0.419

---

Molecular target: c-Src SH2
Experiment: SH2 binding enrichment of the phosphorylated peptide, bacterial display (enrichment ratio); higher = better substrate or ligand; peptides without Tyr show the background
measured-property: SH2 binding enrichment

The following sequences have reported results that may help.
1) IYHLSYHHNCE [PDE6B_Y227_L228H] :: 0.833
2) NFRTTCVNANE [KCNH2_Y475_Y475C] :: 0.387
3) DFTSRYLSASD [PKHD1_Y828_N830S] :: 0.527
4) RRKRAYVEIEY [MAK16_Y282_Q277R] :: 0.37
5) LMIKEYLTKEL [BAG3_Y457_E455K] :: 0.621
6) GLNKDYRMVVN [HINT1_Y94_G93D] :: 0.451
7) AATTAYSKPKR [MAP3K7_Y405] :: 0.693
8) FFLGKYLQEVL [KLB_Y910_YF] :: 1.29
9) ELTSVYDSRAR [SENP1_Y349] :: 0.397
10) ADDSFYTARSA [ZAP70_Y493_YF] :: 0.419

// fetch SH2 binding enrichment given entry KAIMTYVPSFY [ACTN4_Y260_S262P]
1.15

Complete the entry with SH2 binding enrichment for CTTIHKNYMCN [TP53_Y234_Y234K]
0.866

Give a short answer stating reported SH2 binding enrichment for GYQPDYGQPAG [SYP_Y278] .
0.52

Return reported SH2 binding enrichment. Input sequence: RASGIYFVPKG [APBB1IP_Y340_YF]
0.935

---

Target: FGFR1 (UniProt P11362)
Sequence (P11362 whole entry, looked up): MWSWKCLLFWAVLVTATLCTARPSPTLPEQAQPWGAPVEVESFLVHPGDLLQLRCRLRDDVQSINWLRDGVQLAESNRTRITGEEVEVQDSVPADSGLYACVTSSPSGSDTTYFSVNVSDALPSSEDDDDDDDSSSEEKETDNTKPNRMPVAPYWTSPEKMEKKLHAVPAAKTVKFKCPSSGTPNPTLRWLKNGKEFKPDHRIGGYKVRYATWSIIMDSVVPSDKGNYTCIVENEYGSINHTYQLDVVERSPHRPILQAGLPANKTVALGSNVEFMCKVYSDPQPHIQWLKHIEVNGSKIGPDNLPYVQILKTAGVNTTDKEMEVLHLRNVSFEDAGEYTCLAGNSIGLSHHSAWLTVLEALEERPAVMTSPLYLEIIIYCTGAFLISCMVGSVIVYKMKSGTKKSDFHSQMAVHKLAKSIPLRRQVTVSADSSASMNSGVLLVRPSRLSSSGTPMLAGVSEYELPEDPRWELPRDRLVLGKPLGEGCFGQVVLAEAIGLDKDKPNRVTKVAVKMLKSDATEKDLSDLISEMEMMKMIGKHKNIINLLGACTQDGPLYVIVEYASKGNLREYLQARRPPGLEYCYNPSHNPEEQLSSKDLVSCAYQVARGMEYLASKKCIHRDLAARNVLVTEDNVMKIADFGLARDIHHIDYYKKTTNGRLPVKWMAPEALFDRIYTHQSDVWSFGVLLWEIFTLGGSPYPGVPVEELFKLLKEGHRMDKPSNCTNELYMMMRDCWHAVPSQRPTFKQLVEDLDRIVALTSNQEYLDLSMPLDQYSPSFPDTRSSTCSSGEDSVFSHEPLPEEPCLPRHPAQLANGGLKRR
Test: phosphorylation enrichment, bacterial display (enrichment ratio); higher = better substrate or ligand; peptides without Tyr show the background
Label condition met when phosphorylation enrichment is at or above 0.5; otherwise label condition not met.

Answered examples (2):
1) VRLTEYPCAGL :: condition not met
2) FIAVGYVDDSQ [HLA-A_Y51_T55S] :: condition not met

Could you please find out whether TQPSPYAVFLF [RPGRIP1_Y823_R827L_YF] has phosphorylation enrichment that meets 0.5 or exceeds it?
condition met

Does phosphorylation enrichment meet or surpass 0.5 for FLAVGYHKPRI [IDS_Y225_H229R] ?
condition not met

Please tell me: is the sequence RVFIKYLPEWT [PSEN1_Y240_L235R] at or over 0.5 in terms of phosphorylation enrichment?
condition met

---

Test system: Fer (mouse)
Test: phosphorylation enrichment, bacterial display (enrichment ratio); higher = better substrate or ligand; peptides without Tyr show the background
Quick rule: phosphorylation enrichment of at least 0.7 means true, below that means false.

# example entries with known answers
1. DLRTGYSVPFG [TGM1_Y370_Y365D_YF] :: false
2. ETPSEYLEIVR [TMEM130_Y412] :: false
3. SCRENYSYSEE [LEMD3_Y258_D260Y] :: false
4. YQKDVYDIPPS [NEDD9_Y177] :: false
5. STLEVYSCHPP [IL21R_Y317] :: true
6. HCFAAYFQQGD [GPI_Y351_R347C] :: true
7. PMQMPYDSRWE [PDGFRA_Y582_L580M] :: false
8. YIGVTYKNKED [PDGFRA_Y993_E996K] :: false
9. RDGDRYFKGIV [DCX_Y64_N60D] :: false
10. HQKKPYCHAHN [NRAP_Y53] :: true

Does CTSIHYNYMCN [TP53_Y234_T231S] have a reported phosphorylation enrichment of at least 0.7?
false

hey, is phosphorylation enrichment for this one >= 0.7? AAVPAYDKIQV [STXBP2_Y401_R405Q]
true

---

Test system: c-Abl (mouse)
Assay: phosphorylation enrichment, bacterial display (enrichment ratio); higher = better substrate or ligand; peptides without Tyr show the background
measured-property: phosphorylation enrichment
Returns: the value as a bare number; no unit string appended.

Please review the following examples before continuing.
1) YFWDGYMPRQY [GSS_Y270_R267W] :: 0.565
2) RQRTAYFSLDT [CDH1_Y68] :: 0.752
3) SYNNKYGMVAQ [APOB_Y276_K273N] :: 0.61
4) LERFIYNPEEF [HLA-DPB1_Y59_R61P_YF] :: 1.09
5) SEDSEYYKAFE [CASQ2_Y178] :: 0.695
6) VDHFGYNKDDK [APOB_Y740_T741N] :: 0.974

Give recorded phosphorylation enrichment. ALRHYYKLNII [ETV6_Y402]
0.839

Fill in phosphorylation enrichment for record QLLIKYPPEEV [ZZZ3_Y670]
1.25

Supply measured phosphorylation enrichment of TFVVLYDAELT [ERCC4_Y581_R576T_YF] in your reply.
0.979

Please report the measured phosphorylation enrichment for SVVVPYEPPEV [TP53_Y220]
0.798

Return value of phosphorylation enrichment for input CRIELYRVVES [IGFBP1_Y181] , no commentary.
0.759

Supply recorded phosphorylation enrichment for IENKLYGMSDS [RET_Y1062_P1067S] here.
0.678

Input DSASAYADEVK [ETNPPL_Y189] , output reported phosphorylation enrichment.
0.685

// fetch phosphorylation enrichment given entry IVEFAYNDKAI [PUM3_Y259_YF]
0.538

---

Molecular target: Grb2 SH2 (UniProt P62993)
Sequence (P62993 whole entry, looked up): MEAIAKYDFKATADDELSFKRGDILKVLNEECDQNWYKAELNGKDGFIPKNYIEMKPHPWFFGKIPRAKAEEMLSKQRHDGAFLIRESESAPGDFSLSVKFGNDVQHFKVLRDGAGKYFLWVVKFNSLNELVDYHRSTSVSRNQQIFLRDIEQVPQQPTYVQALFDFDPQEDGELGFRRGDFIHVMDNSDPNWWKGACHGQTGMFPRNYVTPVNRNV
Assay: SH2 binding enrichment of the phosphorylated peptide, bacterial display (enrichment ratio); higher = better substrate or ligand; peptides without Tyr show the background
measured-property: SH2 binding enrichment
# answer = number (no unit)

Below, 3 sequences whose answers are already recorded.
1) YQGGTYSKACT [FGG_Y380_S384C] :: 0.997
2) TLNFCYQQVKS [PTK2_Y148_F147C] :: 0.898
3) FSQQVYRVNLS [FAT4_Y480] :: 0.827

Provide SH2 binding enrichment value for the following sequence: GTYEDYVEGLR [MYL6_Y89]
0.777

Name the recorded SH2 binding enrichment of the item MHDKEYYSVHN [MET_Y1234_Y1230H] in your answer.
0.827

Indicate its recorded SH2 binding enrichment; the sequence in question is KVNKIYYPDFI [LIG3_Y767]
0.834

Give the reported SH2 binding enrichment for this sequence. DPGVSYRTREE [PDHA1_Y301]
0.744

---

Overview of recorded SH2 binding enrichment for various sequences
Target: c-Src SH2
Experiment: SH2 binding enrichment of the phosphorylated peptide, bacterial display (enrichment ratio); higher = better substrate or ligand; peptides without Tyr show the background
Respond using a number only.

Please review the following examples before continuing.
1. LTRDIYKNDYY [ROS1_Y2110_A2106T] :: 1.53
2. KEAALYPHLLP [SQSTM1_Y383_P387L] :: 0.436
3. GGYTCCCDGKK [PROS1_Y266_Y266C] :: 0.477
4. RNAAEYPLSSG [ABL1_Y139_L140P] :: 0.497
5. GLDGRYLLRDS [SH2D1A_Y29_S28R] :: 0.515

Quote c-Src SH2 SH2 binding enrichment for entry RVFRDYVLKSA [HTATIP2_Y111_D108Y_YF] .
0.749

Report SH2 binding enrichment under test system c-Src SH2 for EEESCYILHSS [PATJ_Y783] .
0.744

State SH2 binding enrichment (c-Src SH2) of AKKKMYSCKTK [AGXT_Y231_R233C] .
1.2

Please tell me the measured SH2 binding enrichment for ETKKQYNSFTY [TMED3_Y85_D86N] ; system: c-Src SH2.
1.03

State recorded SH2 binding enrichment with c-Src SH2, entry PIGRKYKKVRF [F8_Y442_R437P] , no comment.
0.568

Param request: SH2 binding enrichment | system c-Src SH2 | item ITSLLYHVVGW [GBA_Y412_N409S]
0.959

// fetch SH2 binding enrichment for AFLLLCFNDTH [BMP15_Y235_Y235C] ; system: c-Src SH2
0.704

Provide SH2 binding enrichment, recorded with c-Src SH2, of CYVYYYSYLLK [PTEN_Y178_R173C]
0.68

---

Biological target: Jak2 (UniProt O60674)
Sequence (O60674 whole entry, looked up): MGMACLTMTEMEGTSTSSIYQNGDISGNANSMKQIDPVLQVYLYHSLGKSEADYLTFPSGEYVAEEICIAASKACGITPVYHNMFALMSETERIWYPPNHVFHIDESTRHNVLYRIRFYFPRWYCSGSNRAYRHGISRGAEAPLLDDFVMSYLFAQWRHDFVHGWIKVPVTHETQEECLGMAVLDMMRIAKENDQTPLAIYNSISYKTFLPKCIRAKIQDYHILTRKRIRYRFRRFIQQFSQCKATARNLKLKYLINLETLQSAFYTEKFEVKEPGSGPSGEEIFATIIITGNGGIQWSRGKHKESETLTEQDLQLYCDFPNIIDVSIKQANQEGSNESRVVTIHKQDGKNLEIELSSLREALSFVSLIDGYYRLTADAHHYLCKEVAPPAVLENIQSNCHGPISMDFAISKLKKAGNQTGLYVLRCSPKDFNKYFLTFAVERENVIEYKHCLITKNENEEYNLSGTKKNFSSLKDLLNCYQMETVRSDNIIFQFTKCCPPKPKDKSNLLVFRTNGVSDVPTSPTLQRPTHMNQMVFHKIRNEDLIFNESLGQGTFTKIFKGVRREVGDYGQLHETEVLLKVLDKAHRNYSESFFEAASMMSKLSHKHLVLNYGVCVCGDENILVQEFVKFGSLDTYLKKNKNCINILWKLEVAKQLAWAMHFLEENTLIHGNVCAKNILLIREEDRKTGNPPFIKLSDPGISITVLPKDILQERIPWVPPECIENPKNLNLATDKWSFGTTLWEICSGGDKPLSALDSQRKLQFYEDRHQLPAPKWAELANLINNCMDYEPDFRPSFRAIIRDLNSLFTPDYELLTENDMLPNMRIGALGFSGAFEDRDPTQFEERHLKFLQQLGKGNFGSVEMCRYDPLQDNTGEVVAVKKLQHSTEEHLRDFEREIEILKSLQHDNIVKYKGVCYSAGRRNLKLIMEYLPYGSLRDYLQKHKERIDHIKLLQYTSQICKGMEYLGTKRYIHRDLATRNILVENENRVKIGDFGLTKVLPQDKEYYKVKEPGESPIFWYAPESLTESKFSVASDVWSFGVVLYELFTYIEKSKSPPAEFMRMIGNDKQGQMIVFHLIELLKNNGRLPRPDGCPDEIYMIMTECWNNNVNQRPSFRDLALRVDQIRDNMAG
Test: phosphorylation enrichment, bacterial display (enrichment ratio); higher = better substrate or ligand; peptides without Tyr show the background
Returns one of met or not met; met when phosphorylation enrichment is >= 1.

Would you please look over these solved cases?
1. VAVVDYVEPSP [TXNRD2_Y70] :: not met
2. CRIELYRVVES [IGFBP1_Y181] :: met
3. KKHIPYSEHKS [CSNK1G2_Y206_R207S] :: met
4. PVQDAYQKVVA [HBB_Y131_A129D] :: not met
5. TISPFYRQSLF [CRYAA_Y48_YF] :: not met

Please check the record FSLPAYMDRRD [COX4I1_Y38] and state if its phosphorylation enrichment is at or above 1.
not met

Answer whether phosphorylation enrichment of LMLVLYGRIFR [HTR1A_Y215] is greater than or equal to 1.
met

Decide: phosphorylation enrichment of EKQARYEIVEE [CDH5_Y223_V227E] >= 1?
met

Threshold query (phosphorylation enrichment >= 1) on TFRPPYFHRDC [HGD_Y333_N337D_YF]
not met

Quick check: does PLDGEYLTLQI [TP53_Y327_F328L] have phosphorylation enrichment greater than or equal to 1?
met

State whether the measured phosphorylation enrichment reaches 1, counting equality as reaching it, for RQEEEYKRLSE [SFSWAP_Y133]
met

Dear colleague, could you confirm whether NPEACYQRLKK [TK2_Y190_T188A] has phosphorylation enrichment at or above 1?
not met

// inclusive: phosphorylation enrichment at least 1? input: EEALFYLTRVE [SET_Y119_H118Y_YF]
met
